- Tested on: HCI-011.E2 (organoid from an ER-positive breast cancer xenograft)
- assay_details: CTG-3D luminescence at 96 h relative to day-0 seeding control (ratio to day 0); higher = more growth / less cytotoxicity; PDxO 3D drug screen, 96 h, CTG-3D normalised to day-0 seeding control.
- condition_description: 625 fM
Give CTG-3D luminescence at 96 h for every item shown.
One number for each entry.

# compound `CCc1c2c(nc3ccc(O)cc13)-c1cc3c(c(=O)n1C2)COC(=O)[C@]3(O)CC` ; its CTG-3D luminescence at 96 h = 1.46

# compound `CC[C@H](NC(=O)[C@H](C)NC)C(=O)N1C[C@@H](O)C[C@H]1Cc1c(-c2[nH]c3cc(F)ccc3c2C[C@@H]2C[C@H](O)CN2C(=O)[C@H](CC)NC(=O)[C@H](C)NC)[nH]c2cc(F)ccc12` ; its CTG-3D luminescence at 96 h = 1.72

# compound `CC(=O)O[C@H]1C(=O)[C@@]2(C)[C@H]([C@H](OC(=O)c3ccccc3)[C@]3(O)C[C@H](OC(=O)[C@H](O)[C@@H](NC(=O)c4ccccc4)c4ccccc4)C(C)=C1C3(C)C)[C@]1(OC(C)=O)CO[C@@H]1C[C@@H]2O` ; its CTG-3D luminescence at 96 h = 1.52

# compound `O=C(/C=C/c1cccnc1)NCCCCC1CCN(C(=O)c2ccccc2)CC1` ; its CTG-3D luminescence at 96 h = 1.87

I need CTG-3D luminescence at 96 h for every entry listed below, if you could help.
1. C=CC(=O)N1CCC[C@@H](n2nc(-c3ccc(Oc4ccccc4)cc3)c3c(N)ncnc32)C1
2. CC(C)(C(=O)NCC(F)(F)C(F)(F)F)C(=O)N[C@@H]1C(=O)Nc2ccccc2-c2ccccc21
3. CC1(C)CCC(c2ccc(Cl)cc2)=C(CN2CCN(c3ccc(C(=O)NS(=O)(=O)c4ccc(N[C@H](CCN5CCOCC5)CSc5ccccc5)c(S(=O)(=O)C(F)(F)F)c4)cc3)CC2)C1

Reply:
1. 1.84
2. 1.94
3. 1.8

* * *

- System: HCI-027 (organoid from a triple-negative breast cancer xenograft)
- assay_details: CTG-3D luminescence at 96 h relative to day-0 seeding control (ratio to day 0); higher = more growth / less cytotoxicity; PDxO 3D drug screen, 96 h, CTG-3D normalised to day-0 seeding control.
- condition_description: 0.005 µM; days in culture: 176
assay_endpoint: CTG-3D luminescence at 96 h
Numbers only.

Solved entries:
# compound `C=CCn1c(=O)c2cnc(Nc3ccc(N4CCN(C)CC4)cc3)nc2n1-c1cccc(C(C)(C)O)n1` ; its CTG-3D luminescence at 96 h = 2.67

# compound `Cc1cc(Nc2ncc(Cl)c(Nc3ccccc3S(=O)(=O)C(C)C)n2)c(OC(C)C)cc1C1CCNCC1` ; its CTG-3D luminescence at 96 h = 2.21

I need CTG-3D luminescence at 96 h for every entry listed below, if you could help.
1. O=C(/C=C/c1cccnc1)NCCCCC1CCN(C(=O)c2ccccc2)CC1
2. CN(Cc1cnc2nc(N)nc(N)c2n1)c1ccc(C(=O)N[C@@H](CCC(=O)O)C(=O)O)cc1 [methotrexate]

Reply:
1. 0.365
2. 2.43

* * *

- Tested on: HCI-003.E2 (organoid from an ER-positive breast cancer xenograft)
- assay_details: CTG-3D luminescence at 96 h relative to day-0 seeding control (ratio to day 0); higher = more growth / less cytotoxicity; PDxO 3D drug screen, 96 h, CTG-3D normalised to day-0 seeding control.
- condition_description: 0.1 µM
Give CTG-3D luminescence at 96 h for every item shown.
Numbers only.

I need CTG-3D luminescence at 96 h for every entry listed below, if you could help.
1. Cc1cc(Nc2ncc(Cl)c(Nc3ccccc3S(=O)(=O)C(C)C)n2)c(OC(C)C)cc1C1CCNCC1
2. C/C=C1\NC(=O)[C@H]2CSSCC/C=C/[C@H](CC(=O)N[C@H](C(C)C)C(=O)N2)OC(=O)[C@H](C(C)C)NC1=O
3. CN(Cc1cnc2nc(N)nc(N)c2n1)c1ccc(C(=O)N[C@@H](CCC(=O)O)C(=O)O)cc1 [methotrexate]

Reply:
1: 2.06; 2: 0.0473; 3: 2.12
